Every entry's value here was drawn from patent US20250136553A1.

# TEST SYSTEM: human-KAT6A (MYST domain 507-778 aa) (Homo sapiens (Human), UniProt Q92794)
# Sequence (Q92794 507-778): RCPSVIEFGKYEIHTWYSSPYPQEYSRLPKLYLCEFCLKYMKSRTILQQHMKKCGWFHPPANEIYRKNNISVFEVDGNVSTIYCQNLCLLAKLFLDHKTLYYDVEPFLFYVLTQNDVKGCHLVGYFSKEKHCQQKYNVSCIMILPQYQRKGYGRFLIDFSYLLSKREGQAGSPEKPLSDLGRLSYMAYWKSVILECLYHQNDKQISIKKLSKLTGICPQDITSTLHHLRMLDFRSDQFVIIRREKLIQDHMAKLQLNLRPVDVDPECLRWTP
# ASSAY EXPLANATION: KAT6A biochemical assay (TR-FRET)
# RECORDED CONDITIONS: TR-FRET; histone H4 peptide 200 nM, acetyl-CoA 600 nM; read-out: KAT6A IC50
# Experimental: TR-FRET based methods were used for assaying compounds of the present invention for KAT6A enzyme inhibitory activity. TR-FRET is a homogeneous proximity assay where Europium-labelled anti-acetyl lysine antibody binds to the acetylated substrate labelled with biotin, which in turn binds to streptavidin-labelled APC fluorescence acceptor. […] IC50 values of the compounds were determined by fitting the dose-response data to sigmoidal curve fitting equation using Graph pad prism software V9.
OBSERVATION TYPE: IC50 (nM)

MOLECULE: COc1ccc(C(C)(C)C)cc1S(=O)(=O)NC(=O)c1ccc(Cn2cccn2)c(C)c1
IC50 (nM): 39

MOLECULE: COc1cccc(OC2CCC2)c1S(=N)(=O)NC(=O)c1ccc(Cn2cccn2)c(OC)n1 (stereo not shown)
IC50 (nM): 38

I: COc1cccc(OC)c1S(=O)(=O)NC(=O)c1ccc(Cn2cccn2)c(OC(F)(F)F)n1
II: COc1cc(C)cc(OC)c1[S@@](=N)(=O)NC(=O)c1ccc(Cn2cccn2)c(OC)n1 [Compound 306b]
Could you please tell me which of these two has the higher IC50: I or II ? API: response body contains the label of the selected item.
II

---

# TEST SYSTEM: human-KAT6A (MYST domain 507-778 aa) (Homo sapiens (Human), UniProt Q92794)
# ASSAY EXPLANATION: KAT6A biochemical assay (TR-FRET)
# RECORDED CONDITIONS: TR-FRET; histone H4 peptide 200 nM, acetyl-CoA 600 nM; read-out: KAT6A IC50
OBSERVATION TYPE: IC50 (nM)

COMPOUND: COc1cc(C(=O)NS(=O)(=O)c2c(OC)cccc2OC2CC2)ccc1Cn1cccn1
UNIT SYMBOL: nM
IC50: 9
--
COMPOUND: COc1ccc(C(C)(C)O)cc1S(=N)(=O)NC(=O)c1ccc(Cn2cccn2)c(OC)n1 (racemic)
UNIT SYMBOL: nM
IC50: 39

A: COc1cc(C(=O)N[S@](=N)(=O)c2cc(C(C)(C)CO)ccc2OC)ccc1Cn1cccn1 [Compound 291b]
B: COc1ccc(C(C)(C)CO)cc1[S@](=N)(=O)NC(=O)c1ccc(Cn2cccn2)c(OC)n1 [Compound 290a]
Looking only at measured IC50, which entry is lower, A or B ? Please respond with the label that marks your chosen entry.
A
(A: 9 nM, B: 14 nM)

A: COc1cccc(OCC(F)(F)F)c1S(=O)(=O)NC(=O)c1ccc(Cn2cccn2)c(OC)n1
B: COc1cc(Cn2cccn2)ccc1C(=O)NS(=O)(=O)c1cc2c(cc1OC)CCCC2
C: COc1cc(C(=O)NS(=O)(=O)c2c(OC)cccc2OC)ccc1COc1ncccn1
Put the compounds in ascending order of IC50. Return value: ordered labels per request.
A, C, B

---

# TEST SYSTEM: human-KAT6A (MYST domain 507-778 aa) (Homo sapiens (Human), UniProt Q92794)
# ASSAY EXPLANATION: KAT6A biochemical assay (TR-FRET)
# RECORDED CONDITIONS: TR-FRET; histone H4 peptide 200 nM, acetyl-CoA 600 nM; read-out: KAT6A IC50
# Experimental: TR-FRET based methods were used for assaying compounds of the present invention for KAT6A enzyme inhibitory activity. TR-FRET is a homogeneous proximity assay where Europium-labelled anti-acetyl lysine antibody binds to the acetylated substrate labelled with biotin, which in turn binds to streptavidin-labelled APC fluorescence acceptor. […] IC50 values of the compounds were determined by fitting the dose-response data to sigmoidal curve fitting equation using Graph pad prism software V9.
pIC50: −log10 of the molar value.
OBSERVATION TYPE: pIC50

Example entries and their recorded answers appear below.
COMPOUND: COc1cc(C(=O)NS(=O)(=O)c2c(OC)cccc2OC(C)C)ccc1Cn1cccn1
TEST SYSTEM: human-KAT6A (MYST domain 507-778 aa) (Homo sapiens (Human), UniProt Q92794)
pIC50: 7.96

COMPOUND: COc1cc(F)cc(OC)c1S(=O)(=O)NC(=O)c1ccc(Cn2cccn2)c(OC)n1
TEST SYSTEM: human-KAT6A (MYST domain 507-778 aa) (Homo sapiens (Human), UniProt Q92794)
pIC50: 7.85

COMPOUND: COc1cccc(OC2CCC2)c1[S@@](=N)(=O)NC(=O)c1ccc(Cn2cccn2)c(OC)n1 [Compound 298b]
TEST SYSTEM: human-KAT6A (MYST domain 507-778 aa) (Homo sapiens (Human), UniProt Q92794)
pIC50: 6.29

COMPOUND: CCc1ccc(OC)c(S(=O)(=O)NC(=O)c2ccc(Cn3cccn3)c(OC)n2)c1
TEST SYSTEM: human-KAT6A (MYST domain 507-778 aa) (Homo sapiens (Human), UniProt Q92794)
pIC50: 8.22

COMPOUND: CCOc1cc(C(=O)NS(=O)(=O)c2cc(C(C)(C)C)ccc2OC)ccc1Cn1cccn1
TEST SYSTEM: human-KAT6A (MYST domain 507-778 aa) (Homo sapiens (Human), UniProt Q92794)
pIC50: 7.55

I: COc1cccc(OC)c1S(=O)(=O)NC(=O)c1ncc(Cn2cccn2)c(OC)n1
II: COc1cc(OC)c(S(=O)(=O)NC(=O)c2ccc(Cn3cccn3)c(OC)c2)cc1Br
III: COc1cc(C(=O)N[S@@](=N)(=O)c2cc(C(C)(C)CO)ccc2OC)ccc1Cn1cccn1 [Compound 291a]
IV: COc1ccc(C)c(OC)c1S(=O)(=O)NC(=O)c1ccc(Cn2cccn2)c(OC)n1
Could you please sort these 4 entries by pIC50 from high to low? Would you mind listing the labels in the order asked for?
II, IV, I, III
